Numbers sourced from a protein production outcome set (Wang et al. 2014).

# procedure-text: label from the status in PepcDB records

[
  {
    "query-sequence": "MIIHTLHRYILRNLLVGLAVGSVALIVLIWLINSLKFLDWFVNKGLSVATFLRLTLLLMPGFLTVFIPIALFAVVLFTYNRLAADRELIVMRAAGMGPWQLARPALALCAVLTGVGYWLTLSVVPAMEGAFEAIKYEVRGEVSSLVIKEGQFNQMKDGLIVYAGERAKDGRLIDLMIHDTTGKTSDLTVMAESGALVREGEGARILLINGNRQERNRQTGKVNFLYFDSYAVDLGGKAASTEMRFREERERPLSELISLKAGDRIDPDYPFTYEERHIRRMRMEAHLRLLRPLAHIGFLLIGLAAVLTGEFDRRGGNKRVILAVALVVLFQAGSLGAATVAKKSLDGLLLLDLMTLLPILVGWIWLVWPSERWGRRRLAPRRGRTAAPALGGGAGR",
    "protein production": "failed"
  },
  {
    "query-sequence": "MLYFIPTPIGNLSDISFRALELLKTCDLVFCEDTRVSKSLISLLNTKFHTDIHISKFIALHSHNEKEVLASIDLKIFEKNVAYLSDAGMPGISDPGKALVEFAQENNITYEILPGA",
    "protein production": "not failed"
  },
  {
    "query-sequence": "MDMVTVTAKTVEEAVTKALIELQTTSDKLTYEIVEKGSAGFLGIGSKPAIIRAKRKETLQDKAIEFLEQVFDAMNMAVDISVEYNETEKEMNVNLKGDDMGILIGKRGQTLDSLQYLVSLVVNKSSSDYIRVKLDTENYRERRKETLETLAKNIAYKVKRTKRSVSLEPMNPYERRIIHAALQNDKYVVTRSDGEEPFRHVIISLKRENRRDRNDRSDRNEK",
    "protein production": "not failed"
  },
  {
    "query-sequence": "MSDNNDRMYELEYPSPEVSGQTAGGPTLIVALQGYADAGHAVESSSSHLMDALDHRLIASFNNDELIDYRSRRPVVVIEHNEVTSMDELNLGLHVVRDNDNKPFLMLSGPEPDLRWGDFSNAVVDLVEKFGVENTICLYAAPMTVPHTRPTVVTAHGNSTDRLKDQVSLDTRMTVPGSASLMLEKLLKDKGKNVSGYTVHVPHYVSASPYPAATLKLLQSIADSADLNLPLLALERDAEKVHRQLMEQTEESSEIQRVVGALEQQYDSE",
    "protein production": "not failed"
  },
  {
    "query-sequence": "SAVDCPQHCDSSECKSSPRCERTVLDDCGCCRVCAAGRGETCYRTVSGMDGMKCGPGLRCQPSNGEDPFGEEFGICKDC",
    "protein production": "failed"
  },
  {
    "query-sequence": "MSIPNGGSHQSLEALLAAYDFRLRHEPRNCTLWNNRGILLERLNRWTEALASYNCALEITPQRQEALNNRAIVLEHLGRLPEAVESYEQALAIDRQQPEVWNNRGIVLRKLGRLEDAIASYQQAIALAAHYAQAWANCGFALWQQGRYREAVRHYEQSVAIDPDQSSAWRQLGQIYLSVDQPDQALRCLDQAIALQPQQATAWTWRGHALYNLGQYAAALTSYENAELLGDRPLLLSIQRGHTLAQLERYEEALASYAAILPQLTGEAAAEVAYYQGLVWAYLQDWTAALAAFDQAIAGNPDLAEAWYNRAALHARLDQPVAAIADLQQAIALDPDTYRSLAAEDPDYQTLHAHPDWIQLQRA",
    "protein production": "failed"
  },
  {
    "query-sequence": "MVHDSALPFDALPMPPQGREGFEECPYLDSQWVADTNGQRMTGQGVDTRFDTPACVFWSYPEAPQATVMVRHMPSEEEAIRVVDWAAPIDTTEPAEEPDGWSGGRAGHEEGAVYAVQKGPVAVVVWSNQQQSLKAELMAKEAIARLGL",
    "protein production": "not failed"
  },
  {
    "query-sequence": "MWSCPTLNAPRAAQKWLPVRATPHLCVLHMSRLMLSSTLIDELSYVRKDQLETSALFELIAHRYERHSIAITANEPFSGWSDAMTVAAIDRLVHHSTIIEMNGESYRKRAAVARGASTQNANDEPEDPPNRSSLEHHHHHH",
    "protein production": "failed"
  },
  {
    "query-sequence": "MKPIQLPLSVRLRDDATFANYYPGANAAALGYVERLCEAEAGWAESLIYLWGHDGVGRSHLLQAACLRFEQFEERTIYLPMADLVQYGPEIFDDLEQCELVCIDDLDVLVGKREWEEGLFHLFNRLRDTGRRLLLAASKSPRELQVKLPDLKSRLTMALIFQLHGLSDEDKLRALQLRASRRGLHLTDEVGRFILNRGSRSMNSLFDLLEQLDRASLQAQRKLTIPFLKETLGWLEHHHHHH",
    "protein production": "not failed"
  },
  {
    "query-sequence": "MVLHVMLGEVVTKFLNMNNGVGEGGSQQRELHGKRKLFRGNDFAFSIARMAVAQICESVEVNPYQESQTREGVRFSSFQESALDTLTDVAVQYIQSIGKTAHLYANLAGRVDGNSLDILQALEDLGSGLGFAGVSDTDHCLADSGVVKDIIRYTGEAEEIPFVYSLPRFPFSKEKKPAPSFSEVGAEPPDEHIPVWLPAFPETELCDRSEETNAATIEGEIPSKENGSSLPSMQLSFDGGGRLEIHKSSKDVGESTEAVVEGNLFLTAPLRFVEKNVSPVVRPLELSNEVVRTNHVPDKHVRNNHHIPILEASAPSDKINNKNWLAISKDVEKVDVARKELTLVRFKIGTTKRSMCLAKNRSFQEEGWFQEGEDKREKTSEIKEKRERIDSQLSTQM",
    "protein production": "failed"
  },
  {
    "query-sequence": "MENRAHAFLAGLFTIGLAIFIALAVVWFNRDQTVRVPYEVVTRSTVNGLSPQAAVKYRGLDVGKVDSIRFDDRVPGQIIVRVLVDKDAPITTTTYGRLAYQGVTGLAYVQLDDRGYDGGKRAANPTRLETSDRRPARIAMEAGFLDELDKRGDQMLARIDQTLSSLSALFDDEHRQALMAAMQSFQGTMDSYNALARQAEPTMRRLPQIADNLDATLSATRRLSQSLSDPKGPLMGTLASAGNDLSSASQSMQAATNVLANETLPQLNGFAREARQAVRSFDHAVTDFNTRPQSVLFGPAPATPGPGETGFAAPQVSAAPSVAVPATARP",
    "protein production": "failed"
  },
  {
    "query-sequence": "MTNPGDGAAGAADRATLDHWRPRLAAIAAAAGQDDAAHDLGHLRRVWDAARAMLQAHPEADALVVLAASYLHDLVNLPKNHPERHLASRQAAAAARERLARAGFPAARLDAVAHAIEAHSFSAGIAPRTIEARIVQDADRLDALGPVGLVRMFHVGGSLGRALAHPSDPLAAQRALDDSRYTLDHIEAKLARLPHGMQTEAGRRLGEQRLAWLRDFRAAFSAQWGGGQLRLEHHHHHH",
    "protein production": "failed"
  }
]
